biological target: T1, human serum albumin (human, UniProt P02768 25-609); assay: SPR, Fab captured; albumin taken as HSA;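 further: antibody captured on the sensor surface, albumin injected for a 3 min association phase, then dissociation followed, with signals corrected against a blank flow cell and buffer-only injections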
T1 construct: mature; Bought purified serum albumin; also called HSA; Human albumin
ENDPOINT_NAME: kon (M⁻¹ s⁻¹)
Kindly answer with a numeric value in M⁻¹ s⁻¹, unit omitted.

# BINDER, ENDPOINT_NAME, READOUT_VALUE
records = [
    ("CA645 gL26gH5 Fab (Fab, V domains shown, Fab: human gamma1 CH1, human kappa (Km3); Kabat numbering) VH: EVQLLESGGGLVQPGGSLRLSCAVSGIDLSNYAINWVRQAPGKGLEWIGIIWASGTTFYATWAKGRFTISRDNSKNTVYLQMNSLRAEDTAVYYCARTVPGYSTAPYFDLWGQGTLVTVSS VL: DIQMTQSPSSVSASVGDRVTITCQSSPSVWYNFLSWYQQKPGKAPKLLIYEASKLTSGVPSRFSGSGSGTDFTLTISSLQPEDFATYYCGGGYSSISDTTFGGGTKVEIK", "kon", 60100),
    ("CA645 gL4gH34 Fab (Fab, V domains shown, Fab: human gamma1 CH1, human kappa (Km3); Kabat numbering) VH: EVQLLESGGGLVQPGGSLRLSCAVSGIDLSNYAINWVRQAPGKGLEWIGIIWAQGTTFYATWAKGRFTISRDNSKNTVYLQMNSLRAEDTAVYYCARTVPGYSTAPYFDLWGQGTLVTVSS VL: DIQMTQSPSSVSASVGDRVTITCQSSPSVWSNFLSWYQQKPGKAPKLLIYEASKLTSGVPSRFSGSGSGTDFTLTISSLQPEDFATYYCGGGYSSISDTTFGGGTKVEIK", "kon", 38500),
    ("CA645 gL4gH32 Fab (Fab, V domains shown, Fab: human gamma1 CH1, human kappa (Km3); Kabat numbering) VH: EVQLLESGGGLVQPGGSLRLSCAVSGIDLSNYAINWVRQAPGKGLEWIGIIWAIGTTFYATWAKGRFTISRDNSKNTVYLQMNSLRAEDTAVYYCARTVPGYSTAPYFDLWGQGTLVTVSS VL: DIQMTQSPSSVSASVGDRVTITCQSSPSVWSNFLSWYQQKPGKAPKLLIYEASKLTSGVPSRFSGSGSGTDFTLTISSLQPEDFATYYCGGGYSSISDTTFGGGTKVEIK", "kon", 38600),
    ("CA645 gL23gH5 Fab (Fab, V domains shown, Fab: human gamma1 CH1, human kappa (Km3); Kabat numbering) VH: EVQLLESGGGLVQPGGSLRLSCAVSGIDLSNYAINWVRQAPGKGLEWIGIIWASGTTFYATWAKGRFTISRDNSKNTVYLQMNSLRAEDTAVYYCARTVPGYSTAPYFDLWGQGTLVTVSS VL: DIQMTQSPSSVSASVGDRVTITCQSSPSVWLNFLSWYQQKPGKAPKLLIYEASKLTSGVPSRFSGSGSGTDFTLTISSLQPEDFATYYCGGGYSSISDTTFGGGTKVEIK", "kon", 54900),
]

What the record says about CA645 gL24gH5 Fab (Fab, V domains shown, Fab: human gamma1 CH1, human kappa (Km3); Kabat numbering) VH: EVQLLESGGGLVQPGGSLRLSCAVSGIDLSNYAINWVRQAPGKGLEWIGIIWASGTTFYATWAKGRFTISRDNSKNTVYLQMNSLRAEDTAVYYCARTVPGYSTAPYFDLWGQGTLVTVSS VL: DIQMTQSPSSVSASVGDRVTITCQSSPSVWVNFLSWYQQKPGKAPKLLIYEASKLTSGVPSRFSGSGSGTDFTLTISSLQPEDFATYYCGGGYSSISDTTFGGGTKVEIK : kon is 54700

What the record says about CA645 gL25gH5 Fab (Fab, V domains shown, Fab: human gamma1 CH1, human kappa (Km3); Kabat numbering) VH: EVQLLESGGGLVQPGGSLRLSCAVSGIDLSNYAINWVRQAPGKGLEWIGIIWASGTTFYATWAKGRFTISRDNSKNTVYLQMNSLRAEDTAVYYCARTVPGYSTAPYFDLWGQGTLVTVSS VL: DIQMTQSPSSVSASVGDRVTITCQSSPSVWFNFLSWYQQKPGKAPKLLIYEASKLTSGVPSRFSGSGSGTDFTLTISSLQPEDFATYYCGGGYSSISDTTFGGGTKVEIK : kon is 56200

What the record says about CA645 gL22gH5 Fab (Fab, V domains shown, Fab: human gamma1 CH1, human kappa (Km3); Kabat numbering) VH: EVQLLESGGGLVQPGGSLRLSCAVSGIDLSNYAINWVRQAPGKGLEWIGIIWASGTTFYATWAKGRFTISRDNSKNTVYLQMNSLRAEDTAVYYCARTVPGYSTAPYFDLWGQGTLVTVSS VL: DIQMTQSPSSVSASVGDRVTITCQSSPSVWHNFLSWYQQKPGKAPKLLIYEASKLTSGVPSRFSGSGSGTDFTLTISSLQPEDFATYYCGGGYSSISDTTFGGGTKVEIK : kon is 55700
